Reported IC50 by item:
TESTED TARGET: baculovirus-expressed ALK (Homo sapiens)
METHOD DESCRIPTION: ALK Kinase Assay (ELISA/TRF, PLC-γ substrate); further: 1 µM ATP (Km level)
Type: biochemical
ASSAY CONDITIONS: read-out: ALK Kinase Inhibition (IC50)

>  <COMPOUND>
O=C1CNc2ncc(I)cc2N1Cc1cc(F)ccc1C(F)(F)F [Example 133]

>  <IC50>
> 100 µM

$$$$

Would you kindly look at the next entry?
-- ask Need IC50 of CCOC(=O)c1ccc(-c2cnc3c(c2)N(Cc2c(F)ccc(F)c2Cl)C(=O)CN3)cc1 [Example 5] , thanks.
-- reply 1 to 10 µM

---

Reported inhibition at 1 µM by item:
TESTED TARGET: NPM-ALK (Homo sapiens, UniProt Q9UM73)
Construct: a fusion protein consisting of nucleophosmin (NMP) and the intracellular domain of ALK; the other entry of the earlier key: NPM1 (P06748, Nucleophosmin)
Sequence (Q9UM73 with tags, fused parts or gaps): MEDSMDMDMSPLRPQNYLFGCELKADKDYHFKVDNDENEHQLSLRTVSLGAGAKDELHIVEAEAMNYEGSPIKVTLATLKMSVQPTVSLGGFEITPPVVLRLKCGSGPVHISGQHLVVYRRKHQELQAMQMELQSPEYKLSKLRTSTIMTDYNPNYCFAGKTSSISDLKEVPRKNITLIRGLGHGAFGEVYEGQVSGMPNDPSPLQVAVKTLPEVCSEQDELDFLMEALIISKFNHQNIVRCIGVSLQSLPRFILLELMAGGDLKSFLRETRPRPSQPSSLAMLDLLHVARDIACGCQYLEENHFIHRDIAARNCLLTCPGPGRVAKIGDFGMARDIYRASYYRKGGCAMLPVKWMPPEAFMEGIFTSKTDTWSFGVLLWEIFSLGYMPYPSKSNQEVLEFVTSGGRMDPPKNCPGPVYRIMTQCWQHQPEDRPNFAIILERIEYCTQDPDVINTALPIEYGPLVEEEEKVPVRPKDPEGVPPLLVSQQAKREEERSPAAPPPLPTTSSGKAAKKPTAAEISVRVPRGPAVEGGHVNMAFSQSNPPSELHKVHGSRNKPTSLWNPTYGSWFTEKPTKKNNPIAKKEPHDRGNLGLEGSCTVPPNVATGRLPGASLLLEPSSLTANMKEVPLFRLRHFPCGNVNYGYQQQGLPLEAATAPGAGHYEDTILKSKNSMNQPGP
METHOD DESCRIPTION: ALK Cellular Assay (phospho-NPM-ALK immunoblot / ALK tyrosine phosphorylation ELISA)
Format: cell-based
ASSAY CONDITIONS: NPM-ALK; 1 μM compound; read-out: ALK Cellular Activity Inhibition Score at 1 μM
Where a name gives a salt, the structure may show the parent alone.

Recorded inhibition at 1 µM, per entry:
>  <COMPOUND>
O=S(=O)(CCN1CCCC1)Nc1ccc(-c2cnc3c(c2)N(Cc2cc(F)ccc2F)CCN3)cc1

>  <TESTED TARGET>
NPM-ALK (Homo sapiens, UniProt Q9UM73)

>  <inhibition at 1 µM>
26 to 50%

$$$$
>  <COMPOUND>
CN(C)CCCCNC(=O)c1ccc(-c2cnc3c(c2)N(Cc2c(Cl)cccc2Cl)C(=O)CN3)cc1 [Example 144, trifluoroacetic acid salt]

>  <TESTED TARGET>
NPM-ALK (Homo sapiens, UniProt Q9UM73)

>  <inhibition at 1 µM>
0 to 25%

$$$$
>  <COMPOUND>
O=C(NCCN1CCCC1)c1ccc(-c2cnc3c(c2)N(Cc2cc(F)ccc2F)C(=O)CN3)cc1

>  <TESTED TARGET>
NPM-ALK (Homo sapiens, UniProt Q9UM73)

>  <inhibition at 1 µM>
0 to 25%

$$$$
>  <COMPOUND>
O=C1CNc2ncc(-c3ccc(C(=O)N4CCC[C@H]4CN4CCCC4)cc3)cc2N1Cc1cc(F)ccc1F

>  <TESTED TARGET>
NPM-ALK (Homo sapiens, UniProt Q9UM73)

>  <inhibition at 1 µM>
0 to 25%

$$$$
>  <COMPOUND>
O=C(O)c1ccc(-c2cnc3c(c2)N(Cc2c(F)ccc(F)c2Cl)C(=O)CN3)cc1

>  <TESTED TARGET>
NPM-ALK (Homo sapiens, UniProt Q9UM73)

>  <inhibition at 1 µM>
0 to 25%

$$$$
>  <COMPOUND>
O=C1CNc2ncc(-c3ccc(NS(=O)(=O)CCN4CCCC4)cc3)cc2N1Cc1cc(F)ccc1F

>  <TESTED TARGET>
NPM-ALK (Homo sapiens, UniProt Q9UM73)

>  <inhibition at 1 µM>
26 to 50%

$$$$

Would you kindly look at the next entry?
-- ask Any idea what inhibition at 1 µM came out for O=C1CNc2ncc(-c3ccc(C(=O)N4CCC[C@H]4CN4CCCC4)cc3)cc2N1Cc1c(Cl)cccc1Cl on NPM-ALK (Homo sapiens, UniProt Q9UM73)?
-- reply 51 to 75%

---

Counter-ions that a name gives are not always drawn.
READOUT KIND: melting point (°C)

>  <COMPOUND>
Fc1ccc(F)c(CN2CCNc3ncc(-c4cn[nH]c4)cc32)c1Cl

>  <melting point [°C]>
272

$$$$
>  <COMPOUND>
O=C(c1ccc(-c2cnc3c(c2)N(Cc2c(Cl)cccc2Cl)C(=O)CN3)cc1)N1CCC(N2CCCC2)CC1

>  <melting point [°C]>
199

$$$$
>  <COMPOUND>
O=C(c1ccc(-c2cnc3c(c2)N(Cc2ccccc2)CCN3)cc1)N1CCC(N2CCCC2)CC1

>  <melting point [°C]>
120

$$$$
>  <COMPOUND>
CC(=O)c1ccc(-c2cnc3c(c2)N(Cc2ccccc2)C(=O)CN3)cc1

>  <melting point [°C]>
200

$$$$

A = CC(c1c(F)ccc(F)c1Cl)N1CCNc2ncc(I)cc21 (centres unmarked)
B = FC(F)(F)c1ccc(Cl)cc1CN1CCNc2ncc(-c3cn[nH]c3)cc21
-- ask Of the two listed items, which has the higher melting point? First: A Second: B Please respond with the label that marks your chosen entry.
-- reply B
(B: 271 °C, A: 166 °C)

P = O=C1CNc2ncc(-c3cccnc3)cc2N1Cc1ccccc1
Q = CN(C)CCCCNC(=O)c1ccc(-c2cnc3c(c2)N(Cc2c(Cl)cccc2Cl)C(=O)CN3)cc1 (as salt: trifluoroacetic acid salt)
-- ask Of the two listed items, which has the higher melting point? First: P Second: Q Please respond with the label that marks your chosen entry.
-- reply Q

---

Counter-ions that a name gives are not always drawn.
READOUT KIND: melting point (°C)

>  <COMPOUND>
CCOC(=O)c1cccc(-c2cnc3c(c2)N(Cc2cc(Cl)ccc2C(F)(F)F)CCN3)c1

>  <melting point, °C>
174

$$$$
>  <COMPOUND>
O=C1CNc2ncc(-c3ccc(C(=O)N4CCC[C@H]4CN4CCCC4)cc3)cc2N1Cc1c(Cl)cccc1Cl

>  <melting point, °C>
188

$$$$
>  <COMPOUND>
CN(C)CCCCCCNC(=O)c1ccc(-c2cnc3c(c2)N(Cc2c(Cl)cccc2Cl)C(=O)CN3)cc1 (as salt: trifluoroacetic acid salt)

>  <melting point, °C>
150

$$$$
>  <COMPOUND>
O=C1CNc2ncc(I)cc2N1Cc1cccnc1Cl

>  <melting point, °C>
249

$$$$
>  <COMPOUND>
CC(=O)Nc1ccc(-c2cnc3c(c2)N(Cc2cc(Cl)ccc2C(F)(F)F)CCN3)cc1

>  <melting point, °C>
244

$$$$
>  <COMPOUND>
O=C(O)c1ccc(-c2cnc3c(c2)N(Cc2ccccc2OC(F)(F)F)CCN3)cc1

>  <melting point, °C>
250

$$$$
>  <COMPOUND>
CCOC(=O)c1ccc(-c2cnc3c(c2)N(Cc2ccccc2)C(=O)CN3)cc1

>  <melting point, °C>
178

$$$$

---

TESTED TARGET: baculovirus-expressed ALK (Homo sapiens, UniProt Q9UM73)
Sequence (Q9UM73 19-1620): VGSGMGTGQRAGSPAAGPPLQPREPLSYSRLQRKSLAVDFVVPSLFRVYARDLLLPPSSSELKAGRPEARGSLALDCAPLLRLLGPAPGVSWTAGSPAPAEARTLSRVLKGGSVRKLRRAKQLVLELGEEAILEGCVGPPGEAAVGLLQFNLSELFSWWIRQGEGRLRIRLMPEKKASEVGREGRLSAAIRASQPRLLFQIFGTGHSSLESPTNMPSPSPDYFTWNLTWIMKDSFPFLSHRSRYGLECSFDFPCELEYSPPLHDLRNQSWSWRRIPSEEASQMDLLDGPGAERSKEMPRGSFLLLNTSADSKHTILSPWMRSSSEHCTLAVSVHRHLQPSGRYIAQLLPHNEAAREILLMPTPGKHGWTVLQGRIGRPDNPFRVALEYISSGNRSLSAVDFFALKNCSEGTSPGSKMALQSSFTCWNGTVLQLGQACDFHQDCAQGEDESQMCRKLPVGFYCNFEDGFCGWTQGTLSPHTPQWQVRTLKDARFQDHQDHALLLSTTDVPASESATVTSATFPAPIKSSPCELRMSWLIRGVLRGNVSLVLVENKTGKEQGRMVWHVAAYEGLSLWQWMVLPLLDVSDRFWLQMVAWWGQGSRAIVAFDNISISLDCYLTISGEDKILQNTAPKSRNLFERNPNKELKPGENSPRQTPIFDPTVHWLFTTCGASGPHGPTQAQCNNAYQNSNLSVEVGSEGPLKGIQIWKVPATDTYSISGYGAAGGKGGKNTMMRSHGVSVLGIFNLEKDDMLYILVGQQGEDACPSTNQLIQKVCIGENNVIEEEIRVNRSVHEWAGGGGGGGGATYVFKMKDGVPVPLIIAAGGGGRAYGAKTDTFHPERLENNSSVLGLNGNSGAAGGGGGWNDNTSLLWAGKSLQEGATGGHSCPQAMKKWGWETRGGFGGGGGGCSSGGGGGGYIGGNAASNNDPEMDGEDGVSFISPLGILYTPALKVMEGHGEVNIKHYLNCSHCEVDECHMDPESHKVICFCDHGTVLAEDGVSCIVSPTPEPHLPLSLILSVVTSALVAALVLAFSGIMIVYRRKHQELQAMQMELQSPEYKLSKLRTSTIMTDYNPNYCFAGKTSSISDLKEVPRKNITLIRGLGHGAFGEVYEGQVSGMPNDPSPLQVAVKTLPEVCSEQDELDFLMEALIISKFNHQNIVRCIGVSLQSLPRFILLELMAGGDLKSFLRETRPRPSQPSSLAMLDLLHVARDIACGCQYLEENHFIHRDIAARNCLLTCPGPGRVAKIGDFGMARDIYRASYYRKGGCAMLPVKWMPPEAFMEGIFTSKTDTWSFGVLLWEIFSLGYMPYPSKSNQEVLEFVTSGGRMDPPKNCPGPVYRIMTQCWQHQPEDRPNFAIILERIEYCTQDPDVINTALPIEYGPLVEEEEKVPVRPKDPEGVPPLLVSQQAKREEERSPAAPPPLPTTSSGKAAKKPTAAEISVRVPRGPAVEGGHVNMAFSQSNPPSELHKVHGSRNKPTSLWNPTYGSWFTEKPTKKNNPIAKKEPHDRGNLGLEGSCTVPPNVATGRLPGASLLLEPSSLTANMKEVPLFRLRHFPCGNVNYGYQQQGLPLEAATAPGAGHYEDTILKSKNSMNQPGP
READOUT KIND: IC50

>  <COMPOUND>
O=C(Cc1cc(F)ccc1F)N1CCNc2ncc(I)cc21 [Example 112]

>  <TESTED TARGET>
baculovirus-expressed ALK (Homo sapiens, UniProt Q9UM73)

>  <IC50>
10000 to 100000 nM

$$$$
>  <COMPOUND>
O=C(Cc1ccccc1)N1CCNc2ncc(I)cc21 [Example 110]

>  <TESTED TARGET>
baculovirus-expressed ALK (Homo sapiens, UniProt Q9UM73)

>  <IC50>
> 100000 nM

$$$$
>  <COMPOUND>
O=C(c1cccc(-c2cnc3c(c2)N(Cc2cc(Cl)ccc2C(F)(F)F)CCN3)c1)N1CCN(c2ccccc2)CC1 [Example 306]

>  <TESTED TARGET>
baculovirus-expressed ALK (Homo sapiens, UniProt Q9UM73)

>  <IC50>
100 to 1000 nM

$$$$
>  <COMPOUND>
Nc1ccc(-c2cnc3c(c2)N(Cc2c(F)ccc(F)c2Cl)CCN3)cn1 [Example 184]

>  <TESTED TARGET>
baculovirus-expressed ALK (Homo sapiens, UniProt Q9UM73)

>  <IC50>
< 100 nM

$$$$
>  <COMPOUND>
O=C(c1cnc2c(c1)N(Cc1cc(Cl)ccc1Cl)CCN2)N1CCN(c2ccc(Cl)c(Cl)c2)CC1 [Example 213]

>  <TESTED TARGET>
baculovirus-expressed ALK (Homo sapiens, UniProt Q9UM73)

>  <IC50>
1000 to 10000 nM

$$$$

-- ask Any idea what IC50 came out for COc1ccccc1N1CCN(C(=O)c2ccc(-c3cnc4c(c3)N(Cc3cc(Cl)ccc3C(F)(F)F)CCN4)cc2)CC1 [Example 373] on baculovirus-expressed ALK (Homo sapiens, UniProt Q9UM73)?
-- reply 100 to 1000 nM

-- ask Any idea what IC50 came out for CC(C)(C)OC(=O)NCC#Cc1cnc2c(c1)N(Cc1c(Cl)cccc1Cl)CCN2 [Example 170] on baculovirus-expressed ALK (Homo sapiens, UniProt Q9UM73)?
-- reply 1000 to 10000 nM

-- ask Any idea what IC50 came out for CC1(C)Nc2ncc(I)cc2NC1=O [Example 91] on baculovirus-expressed ALK (Homo sapiens, UniProt Q9UM73)?
-- reply > 100000 nM

-- ask Any idea what IC50 came out for N#Cc1ccc(-c2cnc3c(c2)N(Cc2cc(F)ccc2F)CCN3)cn1 [Example 71] on baculovirus-expressed ALK (Homo sapiens, UniProt Q9UM73)?
-- reply 100 to 1000 nM

Sourced from patent US7601716B2
